# Test system: Fibroblast
# method_notes: Multiplex assay against human fibroblast
# Type: toxicity, cell-based
# settings: 24 h, 10 µM, compound concentration 10 uM, replicate 2
Quick rule: Population Mitotic Cells (%) of at least 60% means MET, below that means NOT MET.

{"molecule": "Cc1sc2c(c1C)C(c1ccc(Cl)cc1)=N[C@@H](CC(=O)NCCCCCCCCNC(=O)COc1cccc3c1C(=O)N(C1CCC(=O)NC1=O)C3=O)c1nnc(C)n1-2 (stereo partly specified)", "test_target": "Fibroblast", "class": "NOT MET"}
{"molecule": "Cc1onc(-c2ccccc2Cl)c1C(=O)N(C)c1ccc(Cl)cc1", "test_target": "Fibroblast", "class": "NOT MET"}
{"molecule": "CN1CCN(c2cc(-c3ccccc3)nc(N)n2)CC1", "test_target": "Fibroblast", "class": "MET"}
{"molecule": "CCCOc1ccc2[nH]cc(C3=CCNCC3)c2n1.Cl", "test_target": "Fibroblast", "class": "NOT MET"}
{"molecule": "CC(C)c1noc(N2CCC(COc3ccc(-c4ccc(S(C)(=O)=O)cc4)nc3)CC2)n1", "test_target": "Fibroblast", "class": "NOT MET"}
